Target: Angiotensin II receptor (Rattus norvegicus) (UniProt P29089+P25095+P35351)
Experiment: Angiotensin II receptor agonist activity was tested in rat isolated uterus assay using [Asp1,Ile5]ANG II (human angiotensin II) as the standard
Assay type: functional, tissue-based
Here, each record is paired with measured Activity data.
endpoint-name: Activity

1) CC[C@H](C)[C@H](NC(=O)[C@H]1CCCN1C(=O)[C@H](Cc1c[nH]cn1)NC(=O)[C@@H](NC(=O)[C@@H](Cc1ccc(O)cc1)NC(=O)[C@@H](NC(=O)[C@H](CCCN=C(N)N)NC(=O)CNC)C(C)C)[C@@H](C)CC)C(=O)O : < 0.1%
2) CC[C@H](C)[C@H](NC(=O)[C@@H](NC(=O)[C@H](CCCN=C(N)N)NC(=O)CNC)C(C)C)C(=O)N[C@H](C(=O)N[C@@H](Cc1c[nH]cn1)C(=O)N1CCC[C@@H]1C(=O)N[C@@H](Cc1ccccc1)C(=O)O)[C@@H](C)CC : 0.2%

###

Biological target: Angiotensin II receptor (Rattus norvegicus) (UniProt P29089+P25095+P35351)
Assay: Angiotensin II receptor agonist activity was tested in rat isolated uterus assay using [Asp1,Ile5]ANG II (human angiotensin II) as the standard
Format: functional, tissue-based
endpoint-name: Activity (%)

1) CC[C@H](C)[C@H](NC(=O)[C@H](Cc1ccccc1)NC(=O)[C@@H](NC(=O)[C@H](CCCN=C(N)N)NC(=O)CNC)C(C)C)C(=O)N[C@@H](Cc1c[nH]cn1)C(=O)N1CCC[C@H]1C(=O)N[C@@H](Cc1ccccc1)C(=O)O : 22

###

Target: Angiotensin II receptor (Rattus norvegicus, UniProt P29089+P25095+P35351)
Assay: Angiotensin II receptor antagonist activity was tested in rat isolated uterus assay using [Asp1,Ile5]ANG II (human angiotensin II) as the standard
Format: functional, tissue-based
Here, each record is paired with measured pA2 data.
endpoint-name: pA2

1. CC[C@H](C)[C@H](NC(=O)[C@@H](NC(=O)[C@H](CCCN=C(N)N)NC(=O)CNC)C(C)C)C(=O)N[C@H](C(=O)N[C@@H](Cc1c[nH]cn1)C(=O)N1CCC[C@H]1C(=O)N[C@@H](Cc1ccccc1)C(=O)O)[C@@H](C)CC : < 6
2. CC[C@H](C)[C@H](NC(=O)[C@H]1CCCN1C(=O)[C@H](Cc1c[nH]cn1)NC(=O)[C@@H](NC(=O)[C@@H](Cc1ccccc1)NC(=O)[C@@H](NC(=O)[C@H](CCCN=C(N)N)NC(=O)CNC)C(C)C)[C@@H](C)CC)C(=O)O : < 5
3. CC[C@H](C)[C@H](NC(=O)[C@@H](NC(=O)[C@@H](NC(=O)[C@H](CCCN=C(N)N)NC(=O)CNC)C(C)C)[C@@H](C)O)C(=O)N[C@@H](Cc1c[nH]cn1)C(=O)N1CCC[C@H]1C(=O)N[C@@H](Cc1ccccc1)C(=O)O : < 6
4. CCOc1ccc(C[C@H](NC(=O)[C@@H](NC(=O)[C@H](CCCN=C(N)N)NC(=O)CNC)C(C)C)C(=O)N[C@H](C(=O)N[C@@H](Cc2c[nH]cn2)C(=O)N2CCC[C@H]2C(=O)N[C@@H](Cc2ccccc2)C(=O)O)[C@@H](C)CC)cc1 : < 6
5. CC[C@H](C)[C@H](NC(=O)[C@@H]1CCCN1C(=O)[C@H](Cc1c[nH]cn1)NC(=O)[C@@H](NC(=O)[C@H](Cc1ccccc1)NC(=O)[C@@H](NC(=O)[C@H](CCCN=C(N)N)NC(=O)CNC)C(C)C)[C@@H](C)CC)C(=O)O : 6.7
6. CC[C@H](C)[C@H](NC(=O)[C@H](Cc1ccc(OC)cc1)NC(=O)[C@@H](NC(=O)[C@H](CCCN=C(N)N)NC(=O)CNC)C(C)C)C(=O)N[C@@H](Cc1c[nH]cn1)C(=O)N1CCC[C@H]1C(=O)N[C@@H](Cc1ccccc1)C(=O)O : 7.5
